Where do the numbers come from? From paper PMC9340783.

// values below are reported pEC50
# tested system: T1, cynoGITR on 293F‐cynoGITR cells (Macaca fascicularis)
# T1 construct: also called 293F‐cGITR
# T1 chain: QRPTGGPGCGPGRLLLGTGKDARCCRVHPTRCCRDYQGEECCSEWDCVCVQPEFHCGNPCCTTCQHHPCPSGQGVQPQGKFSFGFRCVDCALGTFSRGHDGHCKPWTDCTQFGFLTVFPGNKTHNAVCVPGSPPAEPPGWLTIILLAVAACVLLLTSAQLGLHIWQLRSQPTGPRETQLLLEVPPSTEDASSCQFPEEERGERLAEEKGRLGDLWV
# test: flow cytometry on cells; 293F‐hGITR or 293F‐cynoGITR cells incubated with antibodies at 4 °C for 1 h, fluorescent anti-rat/human secondary antibody; EC50 of MFI curve
# test settings: one partner purified
pEC50: −log10 of the molar value.

binder: Tab9H6v3 (antibody, V domains shown, heavy chain variable region of clone 9H6v3 (AMGEN INC.); light chain variable region of clone 9H6v3 (AMGEN INC.)) VH: QVQLVESGGGVVQPGRSLRLSCVASGFTFSSYGMHWIRQAPGKGLEWVAVIWYEGSNKYYAESVKGRFTISRDNSKNTLYLQMNSLRAEDTAVYYCARGGRLGKDYYSGMDVWGQGTTVTVSS VL: DIQMTQSPSSLSASVGDRVTITCRASQGIRNDLGWYQQKPGKAPKRLIYATSSLQSGVPSRFSGSGSGTEFTLTISSLQPEDFATYYCLQHNTYPWTFGQGTKVEIK
pEC50: 9.63
//
binder: mAb076 (antibody, V domains shown, as the VH of m15; as the VL of m15; Human-murine chimeric antibody from H2L2 mice: human variable regions, rat constant regions; source: hybridoma cell culture supernatant, purified (Protein A)) VH: QVQLVESGGGVVQPGRSLRLSCAASGFTFSSYGMHWVRQAPGKGLEWVAVIWYETSNKYYADSVKGRFTISRDNSKNTLYLQMNSLRAEDTAVYYCARYGASSGWYWYFDLWGRGTLVTVSS VL: DIQLTQSPSFLSASVGDRVTITCRASQGISSYLAWYQQKPGKAPKLLIYAASTLQSGVPSRFSGSGSGTEFTLTISSLQPEDFATYCCQQLNSYPFTFGQGTKLEIK
pEC50: 9.65
//
binder: hab076 (antibody, V domains shown, 3503‐hab076‐VH; 3503‐hab076‐Vk; Whole antibody, human IgG1 heavy chain constant region, human kappa light chain constant region; source: FreeStyle 293F, transiently co-transfected, purified from culture supernatant) VH: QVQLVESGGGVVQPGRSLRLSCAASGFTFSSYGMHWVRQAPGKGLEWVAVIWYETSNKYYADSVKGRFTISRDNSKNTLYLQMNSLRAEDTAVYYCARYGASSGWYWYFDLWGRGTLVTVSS VL: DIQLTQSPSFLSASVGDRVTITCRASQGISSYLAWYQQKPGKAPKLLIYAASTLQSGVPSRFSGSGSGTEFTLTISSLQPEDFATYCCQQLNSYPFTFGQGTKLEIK
pEC50: 9.38
